Reference source for all entries: ChEMBL document CHEMBL1140245

# inhibition at 1 µM listing for each entry below
system: MCF7; experiment: In vitro antiproliferative activity against MCF-7 cell line (human breast tumor) at 1 uM concentration; format: functional
Value expressed in %; do not type the unit.

Consider the reported inhibition at 1 µM for these compounds:
{"smiles input": "Cc1nn(C)c(Oc2ccc(Cl)cc2)c1/C=N/OCc1ccc([N+](=O)[O-])cc1", "tested target": "MCF7", "inhibition at 1 µM / %": 27.1}
{"smiles input": "Cc1ccc(CO/N=C/c2c(C)nn(C)c2Oc2ccc(Cl)cc2)cc1", "tested target": "MCF7", "inhibition at 1 µM / %": 30.7}
{"smiles input": "Cc1nn(C)c(Oc2ccccc2)c1/C=N/OCc1ccc(C(F)(F)F)cc1", "tested target": "MCF7", "inhibition at 1 µM / %": 30.5}
{"smiles input": "CC(C)c1nn(-c2ccccc2)c(Oc2ccc(Cl)cc2)c1/C=N/OCc1ccc(C(F)(F)F)cc1", "tested target": "MCF7", "inhibition at 1 µM / %": -1.9}

Read the next record carefully.
For the compound "Cc1nn(C)c(Oc2ccccc2)c1/C=N/OCCN1CCCCC1" , report inhibition at 1 µM.
3.2
